Assay System: neuraminidase of A/Moscow/10/1999 (H3N2), recombinant head domain (Influenza A virus A/Moscow/10/1999 …, strain)
Experiment: BLI
Measurement Setup: both partners purified
Quick reference for pKd among some binders
By convention, pKd is the negative base-10 log of a molar concentration.

[[record]]
binder = "HB420 with all SHMs reverted (Fab) (Fab, V domains shown) VH: EVQLVQSGAEVKKPGSSVKVSCKASGGTFSSYAISWVRQAPGQGLEWMGGIIPIFGTANYAQKFQGRVTITADESTSTAYMELSSLRSEDTAVYYCARDSLPYGDQNYYYGMHVWGQGTTVTVSS VL: QSALTQPASVSGSPGQSITISCTGTSSDVGGYNYVSWYQQHPGKAPKLMIYDVSNRPSGVSNRFSGSKSGNTASLTISGLQAEDEADYYCSSYTSNYNLVFGGGTKLTVL"
value_kind = "pKd"
observed_measurement = 8.74


From here, focus on the item given below.
Req: Recorded pKd of HB420 with only heavy chain SHMs reverted (Fab) (Fab, V domains shown) VH: EVQLVQSGAEVKKPGSSVKVSCKASGGTFSSYAISWVRQAPGQGLEWMGGIIPIFGTANYAQKFQGRVTITADESTSTAYMELSSLRSEDTAVYYCARDSLPYGDQNYYYGMHVWGQGTTVTVSS VL: QSALTQPASLSGSPGQSITISCSGSSSDIGDYNYVSWYQQHPGKAPKLIIYDVTNRPSGVSDRLSGSKSGTTASLTISGLQAEDEADYYCSSYGGNYNLVFGGGTKLTVL , please.
Resp: 8.96
